# method: Slope was measured from percentage of specific binding with time
assayEndpoint: Slope

Exercise: What measured Slope goes with CCCC(=O)OC.CO/C(O)=C1/C(C)=NCCC1c1ccccc1I (centres undefined) ?
Solution: 1.2

Exercise: Next compound up: CCCC(=O)OC.CO/C(O)=C1/C(C)=NCCC1c1ccccc1Cl (centres undefined)
Solution: 1.4

Exercise: Next compound up: CCCC(=O)OC.CO/C(O)=C1/C(C)=NCCC1c1ccccc1Br (centres undefined)
Solution: 1.3

Exercise: Next compound up: CCCC(=O)OC.CO/C(O)=C1/C(C)=NCCC1c1ccccc1F (centres undefined)
Solution: 1.6
